Assignment: determine reported GI50 for the given compounds.
system: A549; assay: NCI tumour cell line growth inhibition, 48 h
Calls of active or inactive are those of the source. No stated cut-off is given here; in the data, active = GI50 up to about 1.1 µM and inactive = higher.

Task: Quick check: GI50 of "Cc1cn(CCCCCCC2=NCCCN2)c(=O)[nH]c1=O" ?
Output: > 100 µM (inactive)

Task: Quick check: GI50 of "O=C(O)c1cc2ccc(Cl)cc2c(O)c1C1=CCCCC1" ?
Output: 39.9 µM (inactive)

Task: Quick check: GI50 of COc1cc2c3c(c1OC)-c1ccccc1C(C(O)c1ccccc1)C3N(C)CC2 (configuration not stated) ?
Output: 39.5 µM (inactive)

Task: Quick check: GI50 of "COc1ccccc1CNCCCCCNCCCCCCCCCCNCCCCCNCc1ccccc1OC" ?
Output: 23.4 µM (inactive)

Task: Quick check: GI50 of O=C1c2ccccc2C2(O)Oc3cccc(O)c3C12O (configuration not stated) ?
Output: > 100 µM (inactive)

Task: Quick check: GI50 of COc1ccc(C(C)NNC(=O)c2cc[n+]([BH2-]C#N)cc2)c(OC)c1 (configuration not stated) ?
Output: > 100 µM (inactive)

Task: Quick check: GI50 of "O=C(/C=C\c1cccc2ccccc12)c1cccs1" ?
Output: 16.8 µM (inactive)

Task: Quick check: GI50 of CCCCCCCCOCC(O)COC(C)C (configuration not stated) ?
Output: 41.6 µM (inactive)

Task: Quick check: GI50 of "O=C1Nc2ccccc2/C1=N/NC(=S)Nc1ccc(Cl)cc1" ?
Output: 34.6 µM (inactive)

Task: Quick check: GI50 of "N#Cc1nc(CCCN2C(=O)c3ccccc3C2=O)oc1N" ?
Output: > 100 µM (inactive)

Task: Quick check: GI50 of "CCCCCCn1c(SC)nc(COC(=O)NC)c1COC(=O)NC" ?
Output: 16.4 µM (inactive)

Task: Quick check: GI50 of "N#Cc1ccc(OC(=O)c2ccc(NC(=N)N)cc2)cc1.c1ccncc1" ?
Output: > 100 µM (inactive)

---

test system: 786-0; assay: NCI tumour cell line growth inhibition, 48 h
Activity calls are given as the source filed them. No stated cut-off is given here; in the data, active = GI50 up to about 1.1 µM and inactive = higher.
Assignment: determine reported GI50 for the given compounds.

Task: Quick check: GI50 of "CCCCCCCCOC(CO)CO" ?
Output: > 100 µM (inactive)

Task: Quick check: GI50 of CC(C)C(C/C=C1/CC(CO)(COC(=O)C(C)(C)C)OC1=O)C(C)C (configuration not stated) ?
Output: 3.23 µM (inactive)

Task: Quick check: GI50 of O=C(CNc1ccc(Cl)cc1Cl)NC1C=Cc2ccc(S(=O)(=O)Nc3ccc(Cl)cc3Cl)cc2C1=O (configuration not stated) ?
Output: > 100 µM (inactive)

Task: Quick check: GI50 of "O=C(O)CCSCCCN1C(=O)c2ccccc2C1=O" ?
Output: > 100 µM (inactive)

Task: Quick check: GI50 of "CS(=O)(=O)c1nc(-c2cc3c(c(S(C)(=O)=O)n2)CCCC3)cc2c1CCCCC2" ?
Output: > 100 µM (inactive)

Task: Quick check: GI50 of "C=CCNC(=S)N/C=C(/C(C)=O)C(=O)Nc1ccccc1C" ?
Output: > 100 µM (inactive)

Task: Quick check: GI50 of CC(NC1CCCC[C@@H]1O)c1ccccc1 (some centres not stated) ?
Output: > 100 µM (inactive)

Task: Quick check: GI50 of "Cc1ccc(S(=O)(=O)NC(=O)Nc2ccc(C(=O)O)cc2)cc1" ?
Output: > 100 µM (inactive)

Task: Quick check: GI50 of Clc1ccc(OCC2NC3CCC2CC3)cn1 (configuration not stated) ?
Output: 18.3 µM (inactive)

Task: Quick check: GI50 of "O=C(CN1CCCCC1)c1ccc2c(c1)Sc1ccccc1O2" ?
Output: 14.8 µM (inactive)

Task: Quick check: GI50 of "CCCCc1cc2c(C)cc(=O)oc2c(O)c1O" ?
Output: 33.9 µM (inactive)

Task: Quick check: GI50 of NC(CO)c1ccc(OCc2ccccc2)cc1 (configuration not stated) ?
Output: > 100 µM (inactive)
